In this section we review reported 90% neutralization VR1814, MRC-9 values for a set of binders.
TARGET_OR_SYSTEM: hCMV UL128 + UL130 + UL131A (HEK293T co-transfectant) (hCMV, UniProt P16837 1-171; P16772 1-214)
Sequence (P16837 whole entry, chain 1 of 2): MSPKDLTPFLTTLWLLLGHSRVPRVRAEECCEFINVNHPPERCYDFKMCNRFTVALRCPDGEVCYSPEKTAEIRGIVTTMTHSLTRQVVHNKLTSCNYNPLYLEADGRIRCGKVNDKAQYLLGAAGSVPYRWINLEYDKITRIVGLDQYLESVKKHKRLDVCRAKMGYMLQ
Sequence (P16772 whole entry, chain 2 of 2): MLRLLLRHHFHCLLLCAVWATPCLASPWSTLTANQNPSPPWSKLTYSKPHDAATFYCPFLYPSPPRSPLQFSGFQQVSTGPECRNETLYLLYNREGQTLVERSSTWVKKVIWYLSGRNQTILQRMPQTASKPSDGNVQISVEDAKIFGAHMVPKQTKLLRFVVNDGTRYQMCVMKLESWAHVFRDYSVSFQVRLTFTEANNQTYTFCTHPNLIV
ASSAY_METHOD_TEXT: cell-based or functional assay

Example entries begin here.
binder="8J16 (antibody, V domains shown, human IgG; also called 8J16-biotin) VH: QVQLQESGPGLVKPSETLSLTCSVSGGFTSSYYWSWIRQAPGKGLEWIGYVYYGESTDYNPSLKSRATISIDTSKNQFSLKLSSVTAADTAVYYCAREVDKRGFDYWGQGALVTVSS VL: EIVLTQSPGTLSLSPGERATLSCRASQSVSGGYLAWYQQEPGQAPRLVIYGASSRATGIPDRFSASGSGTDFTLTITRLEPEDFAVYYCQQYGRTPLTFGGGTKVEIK" property_label="90% neutralization VR1814, MRC-9" value="> 10 µg/mL"
binder="2C12 (antibody, V domains shown, human IgG; also called 2C12-biotin) VH: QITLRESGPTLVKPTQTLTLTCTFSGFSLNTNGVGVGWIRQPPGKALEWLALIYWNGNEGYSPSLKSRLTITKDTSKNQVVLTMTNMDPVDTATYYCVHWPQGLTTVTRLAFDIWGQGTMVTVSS VL: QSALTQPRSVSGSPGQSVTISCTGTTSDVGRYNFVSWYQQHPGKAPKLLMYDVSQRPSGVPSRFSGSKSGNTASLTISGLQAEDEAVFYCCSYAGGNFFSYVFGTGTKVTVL" property_label="90% neutralization VR1814, MRC-9" value="> 10 µg/mL"

In the following, a different binder is considered.
Given the entry 9I6 (antibody, V domains shown, human IgG; also called 9I6-biotin; 916) VH: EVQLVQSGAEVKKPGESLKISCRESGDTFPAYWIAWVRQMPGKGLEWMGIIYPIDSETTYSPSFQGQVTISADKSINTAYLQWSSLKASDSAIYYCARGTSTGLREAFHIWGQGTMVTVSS VL: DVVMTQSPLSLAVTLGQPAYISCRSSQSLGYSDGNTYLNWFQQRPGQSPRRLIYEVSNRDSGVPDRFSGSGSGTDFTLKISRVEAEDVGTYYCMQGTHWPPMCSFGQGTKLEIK , report its measured 90% neutralization VR1814, MRC-9.
> 10 µg/mL
